src = paper PMC7503831

TARGET_DESC: human DOR (Homo sapiens, UniProt P41143)
Construct: expressed in transfected cells; host or cells: CHO cells (membrane preparation)
Sequence (P41143 whole entry): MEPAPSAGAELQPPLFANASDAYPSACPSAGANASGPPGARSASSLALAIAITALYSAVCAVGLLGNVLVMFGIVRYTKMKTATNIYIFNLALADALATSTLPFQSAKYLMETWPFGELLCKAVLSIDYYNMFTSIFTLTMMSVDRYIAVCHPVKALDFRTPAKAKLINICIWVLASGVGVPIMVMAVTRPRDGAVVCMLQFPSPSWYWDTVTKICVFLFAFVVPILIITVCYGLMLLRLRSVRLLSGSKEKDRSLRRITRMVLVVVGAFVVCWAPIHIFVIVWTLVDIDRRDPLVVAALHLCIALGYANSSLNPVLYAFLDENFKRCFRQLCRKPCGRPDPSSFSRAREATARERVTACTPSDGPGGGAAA
ASSAY: [35S]GTPγS binding assay, functional activity for the DOR
Type: biochemical
pEC50: −log10 of the molar value.
Outcome label depends on pEC50 relative to 8: at/above gives criterion met, below gives criterion not met.

MOLECULE | ASSIGNED_CLASS
CS(=O)(=O)N1CCC23c4c5ccc(O)c4OC2c2[nH]c4ccccc4c2CC3(O)C1C5 (centres unmarked) | criterion met
O=S(=O)(C1CC1)N1CCC23c4c5ccc(O)c4OC2c2[nH]c4ccccc4c2CC3(O)C1C5 (centres unmarked) | criterion met
O=S(=O)(CCc1ccccc1)N1CCC23c4c5ccc(O)c4OC2c2[nH]c4ccccc4c2CC3(O)C1C5 (centres unmarked) | criterion not met
